Test system: IL-2
Assay info: Production of IL-2 in anti-CD3-stimulated purified T cells (ELISA)
Format: cell-based, human
Test parameters: Homo sapiens, T-cell; T cells from PBMC on anti-CD3 (OKT3) coated plates, IL-2 by ELISA; read-out: EC50s for IL-2
Metric name: pEC50
Friendly reminder that pEC50 comes from taking -log10 of the concentration in mol/L.

API: value(readout=pEC50, system=IL-2) for record Nc1cccc2c1C(=O)N(C1CCC(=O)NC1=O)C2=O (racemic) [racemic pomalidomide]
7.99
